assay: Total plasma carprofen concentration by chiral HPLC, Example 3; format: in vivo, dog; details: dog, plasma, oral, 4 mg/kg, 4 mg/kg PO tablet, 2-hour, individual dogs
measurement-kind: concentration at 2 h (ng/mL)
Output spec: scalar in ng/mL, unitless text.

Per the record, CC(C(=O)O)c1ccc2c(c1)[nH]c1ccc(Cl)cc12 (racemic) [Carprofen (rac.)] has concentration at 2 h of 37600

----------
Listed compounds paired with reported log10 IC50
Target: canine COX-2 (Canis lupus familiaris)
Construct: host or cells: DH82 canine histocytoma cells, LPS-treated overnight
Sequence (Q8SPQ9 18-604): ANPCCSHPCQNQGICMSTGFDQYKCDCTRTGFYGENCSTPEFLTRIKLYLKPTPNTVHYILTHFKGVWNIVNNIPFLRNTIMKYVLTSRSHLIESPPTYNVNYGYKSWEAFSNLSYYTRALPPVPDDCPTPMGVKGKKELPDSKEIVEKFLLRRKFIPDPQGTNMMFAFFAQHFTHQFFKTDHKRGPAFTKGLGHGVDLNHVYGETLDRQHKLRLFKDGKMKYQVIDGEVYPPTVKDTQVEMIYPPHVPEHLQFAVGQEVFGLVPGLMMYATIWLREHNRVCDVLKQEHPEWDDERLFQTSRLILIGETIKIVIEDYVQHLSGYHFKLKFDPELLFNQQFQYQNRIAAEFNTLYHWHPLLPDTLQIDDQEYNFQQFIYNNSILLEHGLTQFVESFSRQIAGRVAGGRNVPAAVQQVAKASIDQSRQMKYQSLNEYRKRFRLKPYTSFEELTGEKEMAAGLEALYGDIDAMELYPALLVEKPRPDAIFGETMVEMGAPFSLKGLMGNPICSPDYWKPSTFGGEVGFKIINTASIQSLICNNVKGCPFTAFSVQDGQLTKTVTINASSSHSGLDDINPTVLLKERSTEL
Experiment: Canine COX-2 activity: LPS-treated DH82 canine histocytoma cells, PGE2 by EIA
Format: cell-based, dog
Conditions: DH82 cells, PGE2; results of repeated tests averaged; read-out: COX-2 IC50
Values are log10 of IC50 in nM.

O=C(O)c1ccccc1Nc1cccc(C(F)(F)F)c1; 1.68
O=C(O)c1cccnc1Nc1cccc(C(F)(F)F)c1; 1.67
Cc1c(Cl)cccc1Nc1ccccc1C(=O)O; 1.14
Cc1c(Nc2ncccc2C(=O)O)cccc1C(F)(F)F; 1.08

// O=C(O)Cc1ccc(-c2ccccc2)cc1 [Felbinac, [1,1′-biphenyl]-4-acetic acid] : log10 IC50 value = 2.56

Documented log10 IC50 of COc1ccc2cc(CC(=O)O)ccc2c1 : 3.62

According to the records, this compound Cc1ccc(Cl)c(Nc2ccccc2C(=O)O)c1Cl displays log10 IC50 of 1.68

GET /value?item= CCCCC1C(=O)N(c2ccccc2)N(c2ccccc2)C1=O &field=log10 IC50 returns 3.58

According to the records, this compound NC(=O)N1C(=O)C(C(=O)c2cccs2)c2cc(F)c(Cl)cc21 (stereo not drawn) displays log10 IC50 of 2.43
